Biological target: full-length SHP2 (Homo sapiens, UniProt Q06124)
Construct: 1 nM full-length SHP2 (His6-tagged SHP2(2-527), recombinantly expressed in E. coli and purified in-house); His6
Sequence (Q06124 2-527): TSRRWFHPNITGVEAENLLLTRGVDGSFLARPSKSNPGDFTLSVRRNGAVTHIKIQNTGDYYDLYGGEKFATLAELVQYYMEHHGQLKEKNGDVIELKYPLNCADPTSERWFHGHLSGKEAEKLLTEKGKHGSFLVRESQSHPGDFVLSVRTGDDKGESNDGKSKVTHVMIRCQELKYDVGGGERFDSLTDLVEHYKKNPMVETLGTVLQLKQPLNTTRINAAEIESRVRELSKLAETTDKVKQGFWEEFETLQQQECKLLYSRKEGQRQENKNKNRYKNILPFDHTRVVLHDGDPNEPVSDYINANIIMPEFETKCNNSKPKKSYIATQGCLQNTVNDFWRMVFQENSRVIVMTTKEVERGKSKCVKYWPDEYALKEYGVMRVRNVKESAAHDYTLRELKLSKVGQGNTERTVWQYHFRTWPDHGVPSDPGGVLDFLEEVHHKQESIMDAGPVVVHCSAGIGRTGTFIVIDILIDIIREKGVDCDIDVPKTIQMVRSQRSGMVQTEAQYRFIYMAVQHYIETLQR
Experiment: SHP2 enzymatic assay (fluorescence intensity kinetic assay, DiFMUP hydrolysis)
Conditions: 1 nM His6-tagged SHP2(2-527), 1 μM activating peptide, 50 μM DiFMUP; single assay or mean of multiple assays; read-out: Biological Example 1 IC50
pIC50: −log10 of the molar value. Where a name gives a salt, the structure may show the parent alone.
Classify by measured pIC50: Condition met if it is equal to or exceeds 7, Condition not met if it is smaller.

| compound | class_name |
| --- | --- |
| Nc1nccc(Sc2cnc(N3CCC4(CC3)Cc3ccc(Cl)cc3[C@H]4N)nn2)c1Cl | Condition met |
| COc1ccc2c(c1)[C@@H](N)C1(CCN(c3ncc(Sc4ccnc(N)c4Cl)nn3)CC1)C2 | Condition met |
| CC1(N)CCCN(c2ncc(Sc3ccnc(N)c3Cl)nn2)CC1 (stereo not shown) | Condition not met |
| N[C@@H]1c2ccccc2CC12CCN(c1ncc(N3CCc4cnccc43)nn1)CC2 | Condition not met |
| Nc1nccc(Sc2cnc(N3CCC4(CC3)Cc3ccccc3[C@H]4N)nn2)c1Br | Condition met |
| Nc1nccc(Sc2cnc(N3CCC4(CC3)Cc3ncccc3[C@@H]4N)nn2)c1Cl [Example 16, trihydrochloride] | Condition not met |
